Test system: Rattus norvegicus
EXPERIMENTAL_DETAILS: Inhibition of oxytocin-induced uterine contraction in intraduodenally dosed rat
Format: functional
Each entry below carries its recorded AD50.
Don't forget the unit after the number, please.

Example entries begin here.
1. COc1cc(OC2CCN(Cc3ccc[n+]([O-])c3C)CC2)ccc1C(=O)N1CCC(N2C(=O)OCc3ccccc32)CC1 :: 2.5 mg/kg
2. Cc1ccccc1N1CCN(S(=O)(=O)C[C@]23CC[C@H](C[C@@H]2NC(=O)[C@@H](N)CCS(C)(=O)=O)C3(C)C)CC1 :: 7 mg/kg
3. COc1cc(OC2CCN(C(C)=O)CC2)ccc1C(=O)N1CCC(N2C(=O)OCc3ccccc32)CC1 :: 2.5 mg/kg

Now for the molecule whose AD50 we want.
Query CC1(C)[C@@H]2CC[C@@]1(CS(=O)(=O)N1CCC3(C=Cc4ccccc43)CC1)[C@@](O)(CC(=O)O)C2 yields AD50 of 30 mg/kg

###

TESTED_ON: Oxytocin receptor (Rattus norvegicus, UniProt P70536)
EXPERIMENTAL_DETAILS: Displacement of [3H]-oxytocin from rat oxytocin receptor expressed in HEK293-EBNA cells
Assay type: cell-based
PARAMETER_MEASURED: Ki (nM)
Report as a plain number; the unit nM is understood.

Query CCOc1ccc(S(=O)(=O)N(CC(=O)NN=C2C(=O)Nc3ccccc32)c2ccc(C)cc2)cc1 yields Ki of 25

###

Each entry below carries its recorded Ki.
TESTED_ON: Oxytocin receptor (Homo sapiens)
Sequence (P30559 whole entry): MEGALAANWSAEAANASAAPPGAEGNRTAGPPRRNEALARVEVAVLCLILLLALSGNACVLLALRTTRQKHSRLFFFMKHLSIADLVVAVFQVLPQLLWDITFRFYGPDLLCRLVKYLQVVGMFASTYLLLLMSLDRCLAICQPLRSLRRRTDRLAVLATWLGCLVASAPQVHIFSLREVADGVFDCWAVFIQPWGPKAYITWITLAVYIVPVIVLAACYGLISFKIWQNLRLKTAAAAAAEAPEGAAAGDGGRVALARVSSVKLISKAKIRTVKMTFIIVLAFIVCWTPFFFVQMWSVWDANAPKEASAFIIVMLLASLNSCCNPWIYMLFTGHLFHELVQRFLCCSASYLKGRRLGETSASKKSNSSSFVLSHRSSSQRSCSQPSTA
EXPERIMENTAL_DETAILS: Displacement of [3H]-oxytocin from human oxytocin receptor expressed in HEK293-EBNA cells
Type: cell-based
Report as a plain number; the unit nM is understood.

1) COc1ccc(-n2c(C)nnc2-c2ccc(-c3ccccc3OC)cc2)cn1 :: 56

Now for the compound whose Ki we want.
Query CO/N=C1/C[C@H](c2nc(C)no2)N(C(=O)c2ccc(-c3ccccc3C)cc2)C1 yields Ki of 50

###

TESTED_ON: Vasopressin V2 receptor (Homo sapiens)
Sequence (P30518 whole entry): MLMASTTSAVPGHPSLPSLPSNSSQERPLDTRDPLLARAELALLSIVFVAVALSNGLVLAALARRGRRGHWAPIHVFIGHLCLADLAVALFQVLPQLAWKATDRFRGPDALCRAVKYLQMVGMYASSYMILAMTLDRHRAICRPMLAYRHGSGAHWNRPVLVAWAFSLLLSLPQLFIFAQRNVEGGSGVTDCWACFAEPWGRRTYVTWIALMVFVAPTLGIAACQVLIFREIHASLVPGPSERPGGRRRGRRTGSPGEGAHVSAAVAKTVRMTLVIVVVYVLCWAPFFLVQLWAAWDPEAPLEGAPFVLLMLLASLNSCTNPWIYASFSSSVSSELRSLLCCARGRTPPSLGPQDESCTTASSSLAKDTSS
EXPERIMENTAL_DETAILS: Displacement of [3H]vasopressin from human vasopressin V2 receptor
PARAMETER_MEASURED: pKi
API: returns pKi as number; meaning -log10 of concentration in mol/L.

# value of pKi, Vasopressin V2 receptor (Homo sapiens), item CC(C)C[C@@H]1C(=O)N[C@H](C2Cc3ccccc3C2)C(=O)N1[C@@H](C(=O)NC(C)C)c1ccc(F)cc1 = 5.90

###

TESTED_ON: Vasopressin V1a receptor (Homo sapiens)
Sequence (P37288 whole entry): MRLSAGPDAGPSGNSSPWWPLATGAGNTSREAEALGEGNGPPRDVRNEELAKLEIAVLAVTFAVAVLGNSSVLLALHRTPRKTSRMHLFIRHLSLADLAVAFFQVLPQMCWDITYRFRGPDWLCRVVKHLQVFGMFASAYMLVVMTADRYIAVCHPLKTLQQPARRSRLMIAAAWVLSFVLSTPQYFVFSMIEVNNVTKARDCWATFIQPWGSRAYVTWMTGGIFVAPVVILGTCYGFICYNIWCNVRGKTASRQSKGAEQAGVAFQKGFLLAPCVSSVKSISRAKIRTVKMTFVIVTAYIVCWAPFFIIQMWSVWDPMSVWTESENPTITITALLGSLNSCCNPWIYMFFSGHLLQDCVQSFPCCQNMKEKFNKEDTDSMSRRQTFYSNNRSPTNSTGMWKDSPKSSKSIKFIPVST
EXPERIMENTAL_DETAILS: Displacement of [3H]vasopressin from human vasopressin V1a receptor
pKi: −log10 of the molar value.
PARAMETER_MEASURED: pKi

1) CC(C)C[C@@H]1C(=O)N[C@H](C2Cc3ccccc3C2)C(=O)N1[C@@H](C(=O)NC(C)C)c1ccc(F)cc1F :: 5.20
2) CC(C)C[C@@H]1C(=O)N[C@H](C2Cc3ccccc3C2)C(=O)N1[C@@H](C(=O)NC(C)C)c1ccc(F)cc1 :: < 5.20

Query CC(C)C[C@@H]1C(=O)N[C@H](C2Cc3ccccc3C2)C(=O)N1[C@@H](C(=O)NC(C)C)c1ccc(N(C)C)cc1 yields pKi of < 4.40

###

TESTED_ON: Vasopressin V1a receptor (Rattus norvegicus)
Sequence (P30560 whole entry): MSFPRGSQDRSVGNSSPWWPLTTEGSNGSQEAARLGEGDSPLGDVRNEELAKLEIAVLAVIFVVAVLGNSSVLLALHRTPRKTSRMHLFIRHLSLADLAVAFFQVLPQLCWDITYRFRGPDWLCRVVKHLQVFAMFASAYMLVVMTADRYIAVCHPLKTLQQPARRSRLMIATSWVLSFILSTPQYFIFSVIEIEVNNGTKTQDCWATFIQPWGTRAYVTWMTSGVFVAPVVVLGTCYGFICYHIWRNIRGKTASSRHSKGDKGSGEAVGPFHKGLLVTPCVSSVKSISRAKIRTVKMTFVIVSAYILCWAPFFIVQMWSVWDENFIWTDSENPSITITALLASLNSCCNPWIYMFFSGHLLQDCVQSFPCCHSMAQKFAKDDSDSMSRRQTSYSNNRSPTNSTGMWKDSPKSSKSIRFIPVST
EXPERIMENTAL_DETAILS: Displacement of [3H]vasopressin from rat vasopressin V1a receptor in liver tissue
PARAMETER_MEASURED: Ki
Don't forget the unit after the number, please.

Query CCN(Cc1cccnc1)C(=O)c1ccc(Cl)c([C@]2(C)C(=O)N(Cc3ccc(OC)cc3OC)c3ccc(Cl)cc32)c1 yields Ki of 0.099 µM

###

EXPERIMENTAL_DETAILS: Clearance in dog
Format: ADME, organism-based, Canis lupus familiaris
CONDITION_INFO: in vivo
PARAMETER_MEASURED: clearance (mL/min/kg)
Report as a plain number; the unit mL/min/kg is understood.

Query COCc1nnc(N2CC(Oc3ccc(F)cc3Cl)C2)n1-c1ccc(OC)nc1 yields clearance of 8

###

EXPERIMENTAL_DETAILS: Oral bioavailability in rhesus monkey
Type: ADME, organism-based, Macaca mulatta
CONDITION_INFO: in vivo
Each entry below carries its recorded bioavailability.
Report as a plain number; the unit % is understood.

1) COc1cc(OC2CCN(Cc3ccc[n+]([O-])c3C)CC2)ccc1C(=O)N1CCC(N2C(=O)OCc3ccccc32)CC1 :: 36

Now for the molecule whose bioavailability we want.
Query COc1cc(OC2CCN(C(C)=O)CC2)ccc1C(=O)N1CCC(N2C(=O)OCc3ccccc32)CC1 yields bioavailability of 13

###

Each entry below carries its recorded Ratio Ki.
Species on record: Homo sapiens
EXPERIMENTAL_DETAILS: Selectivity ratio of Ki for human oxytocin receptor Ki for human vasopressin V2 receptor
Could you respond with only the numeric value?

1) COc1ccc(N(Cc2ccc(-c3ccccc3C)cn2)S(=O)(=O)c2cn(C)c(C)n2)cn1 :: 15700
2) CN(C)CCCNC(=O)CCc1ccc(S(=O)(=O)N(CC(=O)N/N=C2\C(=O)Nc3ccccc32)c2ccc(Cl)cc2)cc1 :: 580

Query CC1(C)[C@@H]2CC[C@@]1(CS(=O)(=O)N1CCC3(C=Cc4ccccc43)CC1)[C@@](O)(CC(=O)O)C2 yields Ratio Ki of 11

Query Cc1ccccc1N1CCN(S(=O)(=O)C[C@]23CC[C@H](C[C@@H]2NC(=O)[C@@H](N)CCS(C)(=O)=O)C3(C)C)CC1 yields Ratio Ki of 45

Query COCc1nnc(N2CC(Oc3ccc(F)cc3Cl)C2)n1-c1ccc(OC)nc1 yields Ratio Ki of 1050

Query CO/N=C1/C[C@@H](C(=O)NC[C@@H](O)c2ccccc2)N(C(=O)c2ccc(-c3ccccc3C)cc2)C1 yields Ratio Ki of 350

###

EXPERIMENTAL_DETAILS: Aqueous solubility of the compound at pH 5
Type: physicochemical
PARAMETER_MEASURED: solubility (µg/mL)
Report as a plain number; the unit µg/mL is understood.

1. COc1ccc(-n2c(C)nnc2-c2cnc(-c3ccc(F)cc3C)cn2)cn1 :: 6

Query COc1cc(OC2CCN(Cc3ccc[n+]([O-])c3C)CC2)ccc1C(=O)N1CCC(N2C(=O)OCc3ccccc32)CC1 yields solubility of 10000

###

TESTED_ON: Vasopressin V2 receptor (Rattus norvegicus, UniProt Q00788)
Sequence (Q00788 whole entry): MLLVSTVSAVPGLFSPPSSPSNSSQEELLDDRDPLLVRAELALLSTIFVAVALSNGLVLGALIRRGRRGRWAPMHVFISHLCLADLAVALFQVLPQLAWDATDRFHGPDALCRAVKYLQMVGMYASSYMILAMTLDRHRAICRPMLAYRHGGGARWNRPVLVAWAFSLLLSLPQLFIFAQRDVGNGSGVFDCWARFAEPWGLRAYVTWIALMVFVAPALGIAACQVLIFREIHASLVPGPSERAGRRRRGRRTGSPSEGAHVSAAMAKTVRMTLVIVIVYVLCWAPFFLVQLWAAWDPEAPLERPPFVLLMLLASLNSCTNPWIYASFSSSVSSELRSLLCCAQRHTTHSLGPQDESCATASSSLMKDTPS
EXPERIMENTAL_DETAILS: Displacement of [3H]vasopressin from rat vasopressin V2 receptor in kidney tissue
PARAMETER_MEASURED: Ki

Query CCN(Cc1cccnc1)C(=O)c1ccc(Cl)c([C@]2(C)C(=O)N(Cc3ccc(OC)cc3OC)c3ccc(Cl)cc32)c1 yields Ki of > 1000 nM

###

EXPERIMENTAL_DETAILS: Half life in human
Assay type: ADME, organism-based
CONDITION_INFO: in vivo
PARAMETER_MEASURED: half-life (h)
Report as a plain number; the unit h is understood.

Query COCc1nnc(N2CC(Oc3ccc(F)cc3Cl)C2)n1-c1ccc(OC)nc1 yields half-life of 12

###

TESTED_ON: UniProt P30518
EXPERIMENTAL_DETAILS: Displacement of [3H]vasopressin from vasopressin V2 receptor in human kidney tissue
PARAMETER_MEASURED: Ki (µM)
Report as a plain number; the unit µM is understood.

1. COc1cc(OC2CCN(Cc3ccc[n+]([O-])c3C)CC2)ccc1C(=O)N1CCC(N2C(=O)OCc3ccccc32)CC1 :: 28
2. CC1(C)[C@@H]2CC[C@@]1(CS(=O)(=O)N1CCC3(C=Cc4ccccc43)CC1)[C@@](O)(CC(=O)O)C2 :: 5.6

Query Cc1ccccc1N1CCN(S(=O)(=O)C[C@]23CC[C@H](C[C@@H]2NC(=O)[C@@H](N)CCS(C)(=O)=O)C3(C)C)CC1 yields Ki of 0.59

###

TESTED_ON: Oxytocin receptor (Rattus norvegicus)
Sequence (P70536 whole entry): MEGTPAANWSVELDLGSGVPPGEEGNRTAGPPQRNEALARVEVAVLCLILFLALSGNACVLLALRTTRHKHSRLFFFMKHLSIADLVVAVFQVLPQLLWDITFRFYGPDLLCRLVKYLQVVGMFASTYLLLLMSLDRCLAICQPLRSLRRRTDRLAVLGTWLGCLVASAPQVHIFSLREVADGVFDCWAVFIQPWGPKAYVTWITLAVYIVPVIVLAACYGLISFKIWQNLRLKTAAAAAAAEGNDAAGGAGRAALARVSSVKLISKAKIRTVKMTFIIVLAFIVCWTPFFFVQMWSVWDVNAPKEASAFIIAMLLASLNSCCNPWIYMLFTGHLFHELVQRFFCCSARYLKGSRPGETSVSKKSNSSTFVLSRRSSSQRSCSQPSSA
EXPERIMENTAL_DETAILS: Displacement of [3H]-oxytocin from rat oxytocin receptor expressed in CHO cells
Type: cell-based
PARAMETER_MEASURED: pKi
API: returns pKi as number; meaning -log10 of concentration in mol/L.

1) CCN(Cc1cccnc1)C(=O)c1ccc(Cl)c([C@]2(C)C(=O)N(Cc3ccc(OC)cc3OC)c3ccc(Cl)cc32)c1 :: 8.80

Now for the compound whose pKi we want.
Query CO/N=C1/C[C@@H](CO)N(C(=O)c2ccc(-c3ccccc3C)cc2)C1 yields pKi of 6.68
